Tested on: Saccharomyces cerevisiae;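 also: PSI is a weighted mean of sequencing reads over stability bins, variants kept only with over 10 reads, mCherry proximal and sfGFP distal, peptide attached via GGGS linker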
Test description: protein stability index of tFT-peptide fusion (C-terminal peptide) (PSI (0-1 scale)); higher = more stable (slower turnover)
Run parameters: genetic background: cdc34-1; temperature: 37 C
Rule: protein stability index of 0.5 or more gives True; anything lower gives False.

{"Biosequence": "NLFVFLSYLFNV", "Qualitative label": "True"}
{"Biosequence": "VCCSILFSAFLV", "Qualitative label": "True"}
{"Biosequence": "KVLLYWRHAQRQ", "Qualitative label": "True"}
{"Biosequence": "LPVSLWLVCSFF", "Qualitative label": "True"}
{"Biosequence": "PLLLFFFPRLLF", "Qualitative label": "True"}
{"Biosequence": "KKIKKYTRKLKI", "Qualitative label": "True"}
{"Biosequence": "PRIVLFLRLHSN", "Qualitative label": "True"}
{"Biosequence": "IFFYQLYVDRLC", "Qualitative label": "False"}
{"Biosequence": "CFFFPCFSFRFL", "Qualitative label": "False"}
{"Biosequence": "PSPPPYAPPIPA", "Qualitative label": "True"}
{"Biosequence": "VSIRVVVWVSWG", "Qualitative label": "False"}
{"Biosequence": "LQNCRVSVLLGW", "Qualitative label": "True"}
{"Biosequence": "GQFFRCWRRRLC", "Qualitative label": "True"}
{"Biosequence": "YVSLPFVVWWFC", "Qualitative label": "False"}
{"Biosequence": "NYCVFLSYLLFC", "Qualitative label": "False"}
{"Biosequence": "DKVTLLRRCKQY", "Qualitative label": "True"}
{"Biosequence": "RASLPSLFRSLL", "Qualitative label": "True"}
{"Biosequence": "RRIILAGLFLIS", "Qualitative label": "True"}
{"Biosequence": "FKWVSRIRLLDA", "Qualitative label": "False"}
{"Biosequence": "LWGLVWGGVWGV", "Qualitative label": "True"}
{"Biosequence": "FSFFLYFFLLLF", "Qualitative label": "False"}
{"Biosequence": "WLLSFLRFLVLR", "Qualitative label": "False"}
{"Biosequence": "TCPFTIHRLKVG", "Qualitative label": "True"}
{"Biosequence": "LRVVLVEWMCVV", "Qualitative label": "False"}
{"Biosequence": "FVLWLIYVDLFF", "Qualitative label": "False"}
{"Biosequence": "LVIFSLLFSFSH", "Qualitative label": "False"}
{"Biosequence": "FLFQYLCIISSL", "Qualitative label": "False"}
{"Biosequence": "LKTKKKKTNTQK", "Qualitative label": "True"}
{"Biosequence": "PVALYPVQAYLT", "Qualitative label": "True"}
{"Biosequence": "TYKHIVRVNKCE", "Qualitative label": "True"}
{"Biosequence": "WLCWVVWFPGLF", "Qualitative label": "False"}
{"Biosequence": "LRLCMVFAWFLT", "Qualitative label": "False"}
{"Biosequence": "SDVLVVWVFFCR", "Qualitative label": "False"}
{"Biosequence": "GGRSLYAILCAV", "Qualitative label": "False"}
{"Biosequence": "CYKYTYVKNNMI", "Qualitative label": "True"}
{"Biosequence": "GLLLRLRNLFCM", "Qualitative label": "True"}
{"Biosequence": "SLCELRCLLRVG", "Qualitative label": "True"}
{"Biosequence": "LRFYLLTPPSPA", "Qualitative label": "True"}
{"Biosequence": "GGRREWCRGGGV", "Qualitative label": "True"}
{"Biosequence": "CFVLVVCIPVMV", "Qualitative label": "False"}
{"Biosequence": "LFSVFSLVLFIF", "Qualitative label": "False"}
{"Biosequence": "DLRGLGRFRISH", "Qualitative label": "True"}
{"Biosequence": "EKHRRYAITKFI", "Qualitative label": "True"}
{"Biosequence": "YYQVSQKIQRKQ", "Qualitative label": "True"}
{"Biosequence": "FFLVILSWWVGE", "Qualitative label": "False"}
{"Biosequence": "FVVVVVWVSRGL", "Qualitative label": "False"}
{"Biosequence": "YFTNCYRSILTF", "Qualitative label": "False"}
{"Biosequence": "SLRSRSLRCRLS", "Qualitative label": "True"}
{"Biosequence": "PLLPTPLTAPPP", "Qualitative label": "True"}
{"Biosequence": "AFFGIYLICFIV", "Qualitative label": "False"}
{"Biosequence": "HFLLAFMLCFGQ", "Qualitative label": "False"}
{"Biosequence": "LFVVFVLLTFFV", "Qualitative label": "False"}
{"Biosequence": "GVLRMAPGRVMC", "Qualitative label": "True"}
{"Biosequence": "GVSLQLHVAVLI", "Qualitative label": "True"}
{"Biosequence": "LCVGFISFCFCL", "Qualitative label": "False"}
{"Biosequence": "PVFVLFFFSSLV", "Qualitative label": "False"}
{"Biosequence": "CFFICGVFVFLM", "Qualitative label": "False"}
{"Biosequence": "LRLEFRTNWFLQ", "Qualitative label": "True"}
{"Biosequence": "RIRLYWVLRRLG", "Qualitative label": "True"}
{"Biosequence": "LQLGFCFVAQFI", "Qualitative label": "True"}
{"Biosequence": "PSIALVRLDVIC", "Qualitative label": "False"}
{"Biosequence": "VGGLGWCWVCMA", "Qualitative label": "True"}
{"Biosequence": "FLLCRVFVLLRS", "Qualitative label": "False"}
{"Biosequence": "WKNIHGVFVFVM", "Qualitative label": "True"}
{"Biosequence": "NLVCLDPFLVFV", "Qualitative label": "True"}
{"Biosequence": "NWAIEIRSVKIV", "Qualitative label": "True"}
{"Biosequence": "SGRFRAFVLRSM", "Qualitative label": "True"}
